Parameter: EC50. Scope: all listed entries.
target: human hNET (Homo sapiens, UniProt P23975); test: Norepinephrine (NE) uptake assay in MDCK-Net6 cells; conditions: [3H]NE uptake, MDCK-Net6 cells stably transfected with hNET; test range 1 to 10,000 nM
Sequence (P23975 whole entry): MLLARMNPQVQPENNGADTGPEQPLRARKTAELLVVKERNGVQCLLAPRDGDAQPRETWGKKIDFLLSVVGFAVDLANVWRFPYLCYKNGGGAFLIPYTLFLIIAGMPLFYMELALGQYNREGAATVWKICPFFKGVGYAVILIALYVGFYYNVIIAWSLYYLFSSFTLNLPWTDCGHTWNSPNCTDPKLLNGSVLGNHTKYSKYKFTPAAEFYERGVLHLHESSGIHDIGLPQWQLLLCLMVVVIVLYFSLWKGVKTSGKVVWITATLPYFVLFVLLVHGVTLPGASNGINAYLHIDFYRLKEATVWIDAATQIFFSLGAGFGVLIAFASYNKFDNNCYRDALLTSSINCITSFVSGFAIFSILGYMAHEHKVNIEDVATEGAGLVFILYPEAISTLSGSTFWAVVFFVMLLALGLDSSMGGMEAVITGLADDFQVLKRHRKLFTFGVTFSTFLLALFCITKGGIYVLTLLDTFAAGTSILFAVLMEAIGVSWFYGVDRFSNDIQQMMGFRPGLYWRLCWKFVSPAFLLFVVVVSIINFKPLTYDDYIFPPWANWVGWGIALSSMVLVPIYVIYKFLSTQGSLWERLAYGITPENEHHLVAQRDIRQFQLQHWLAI
Where a name gives a salt, the structure may show the parent alone.
Recorded Endpoint: EC50

{"Compound": "C[C@H]1CN(CC(c2cccc(Cl)c2)C2(O)CCCCC2)CCN1 (some centres unmarked) [Example 4, dihydrochloride]", "Result": "59 nM"}
{"Compound": "OC1(C(CN2CCNCC2)c2cccc(Br)c2)CCCCC1 (centres unmarked) [Example 3, dihydrochloride]", "Result": "100 nM"}
{"Compound": "OC1(C(CN2CCNCC2)c2ccc(Cl)c(Cl)c2)CCCCC1 (centres unmarked) [Example 6, dihydrochloride]", "Result": "210 nM"}
{"Compound": "OC1([C@@H](CN2CCNCC2)c2cccc(Cl)c2)CCCCC1 [Example 35, dihydrochloride]", "Result": "540 nM"}
{"Compound": "C[C@@H]1CN(CC(c2cccc(Cl)c2)C2(O)CCCCC2)CCN1 (some centres unmarked) [Example 5, dihydrochloride]", "Result": "110 nM"}

Values were extracted from patent US7531543B2.
